- Measurement Description: NMR kinetic solubility
- Assay type: physicochemical
- Setup Conditions: 500 µM final compound concentration, 20 mM HEPES buffer pH 8, 2% or 5% DMSO
- Experimental: Solubility measurements by quantitative ^1H-NMR or HPLC method were performed as described previously.
Mark not satisfied for Sol. (NMR kinetic solubility) values under 70 µM, and satisfied for everything at or above.

Below, 5 molecules whose answers are already recorded.
O=C(NCCCN1CCOCC1)c1csc(Nc2cccc3ccccc23)n1    satisfied
N#Cc1c(C(F)(F)F)cc(-c2cccs2)nc1SC(C(=O)O)c1ccccc1 (stereo not shown)    satisfied
Cn1c(=O)n(C)c2cc(Nc3cc(N4CCOCC4)ncn3)ccc21    not satisfied
COc1cccc(CN(C)c2nc3c(cnn3C(C)(C)C)c(=O)[nH]2)c1    not satisfied
O=C(NCc1ccccn1)c1csc(Nc2ccccc2Cl)n1    satisfied

**Q:** Would you say CCCC1=C(C(=O)OCC)C(c2cccnc2)n2ncnc2N1 (stereo not shown) shows Sol. (NMR kinetic solubility) at minimum 70 µM?
**A:** satisfied

**Q:** Is reported Sol. (NMR kinetic solubility) greater than or equal to 70 µM here: Fc1ccc(C2CC(c3cccc4ccccc34)n3ncnc3N2)cc1 (stereo not shown)
**A:** not satisfied
